Biological target: P. falciparum apicoplast DNA polymerase (Pf-apPOL) (Plasmodium falciparum, UniProt Q8ILY1)
Sequence (Q8ILY1 entry or part of it): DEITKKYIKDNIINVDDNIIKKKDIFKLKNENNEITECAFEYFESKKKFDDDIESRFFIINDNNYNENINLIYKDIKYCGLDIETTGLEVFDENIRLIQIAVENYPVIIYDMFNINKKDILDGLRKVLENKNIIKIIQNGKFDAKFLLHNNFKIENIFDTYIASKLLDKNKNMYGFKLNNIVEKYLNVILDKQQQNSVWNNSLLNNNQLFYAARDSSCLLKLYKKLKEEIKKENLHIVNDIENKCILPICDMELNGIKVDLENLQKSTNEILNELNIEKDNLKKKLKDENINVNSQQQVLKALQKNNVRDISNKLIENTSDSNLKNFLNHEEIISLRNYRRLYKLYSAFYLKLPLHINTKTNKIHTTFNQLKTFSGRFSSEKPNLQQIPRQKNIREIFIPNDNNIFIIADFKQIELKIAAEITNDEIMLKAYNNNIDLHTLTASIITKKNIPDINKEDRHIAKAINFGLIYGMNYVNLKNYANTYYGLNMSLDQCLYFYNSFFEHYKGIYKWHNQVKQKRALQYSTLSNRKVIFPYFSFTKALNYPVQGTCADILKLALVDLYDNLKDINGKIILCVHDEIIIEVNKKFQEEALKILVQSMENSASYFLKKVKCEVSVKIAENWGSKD
Assay: Fluorescence-based high-throughput DNA polymerase assay (molecular beacon), primary screen and dose-response;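 also: compound concentration given in µM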
Type: biochemical
Details: conc. 40; 40'; DRC-2
fulfilled means recorded % inhibition Apol 40' is 70% or above; not fulfilled means it is below 70%.

Confirm if % inhibition Apol 40' reported for the molecule COc1ccc(C=C2Oc3c(ccc4c3CN(c3ccc5c(c3)OCO5)CO4)C2=O)cc1OC is 70% or above. not fulfilled

Try this molecule too: O=C(CSc1nnc(-c2ccncc2)[nH]1)c1ccc(O)c(O)c1 fulfilled

Would you kindly repeat that for O=C1NCCCn2cc(S(=O)(=O)Nc3ccccc3)cc21 ? not fulfilled

Next molecule up: Cc1cc(C)c(O)c(/N=C/c2cc([N+](=O)[O-])cc(Br)c2O)c1 not fulfilled

Try this molecule next: COc1ccc(NC(=O)Cn2ccc3c(=O)[nH]ccc32)cc1Cl [Molecule 10, COc1ccc(cc1Cl)NC(=O)Cn1ccc2c1cc[nH]c2=O] not fulfilled

Measured values drawn from paper PMC9090415 for this set.
